- Target under test: Ba/F3-Δ19del/T790M/C797S (Homo sapiens, UniProt P00533, T790M/C797S, cells depend on it, form not given)
- Test details: Ba/F3-Δ19del/T790M/C797S cells proliferation assay
- Assay type: cell-based
- Measurement context: cell proliferation, 72 h, CellTiter Glo; class symbols; read-out: BaF3 Δ 19del/T790M/C797S IC50
- Experimental: a) The medium was preheated in a 37 water bath in advance. b) Remove the cryogenic vials from the liquid nitrogen tank, quickly put it into a 37° C. water bath, and completely melt it in 1 min. c) Transfer the cell suspension to a 15 mL centrifuge tube containing 8 mL medium, centrifuge 1000 rpm, 5 min, […] c) The Luminescence signal value was read using a PerkinElmer reader. […] Data were analyzed using GraphPad Prism 6.0 software to obtain a fitted curve of compound activity. […]
Reported GI50 by item:

Exercise: Reported GI50, compound C=CC(=O)N(C)c1cc(Nc2ncc(Cl)c(Nc3ccccc3P(C)(C)=O)n2)ccc1N1CCC2(CC1)CC(N(C)C)C2 : ____
Key: 0.01 to 0.05 µM

Exercise: What do you have for C=CC(=O)Nc1cc(Nc2ncc(Br)c(Nc3ccc4nccnc4c3P(C)(C)=O)n2)ccc1N1CCC2(CC1)CC(N(C)C)C2 ?
Key: < 0.01 µM

Exercise: What do you have for C=CC(=O)Nc1cc(Nc2ncc(Cl)c(Nc3ccccc3P(C)(C)=O)n2)ccc1N1CCC2(CC1)CC(N(C)C)C2 ?
Key: < 0.01 µM

Exercise: What do you have for C=CC(=O)Nc1cc(Nc2ncc(Cl)c(Nc3ccc4ncccc4c3P(C)(C)=O)n2)ccc1N1CCC2(CC1)CC(N(C)C)C2 ?
Key: < 0.01 µM

====

- Target under test: Ba/F3-L858R/T790M/C797S (Homo sapiens, UniProt P00533, T790M/C797S/L858R, cells depend on it)
- Construct: BaF3 L858R/T790M/C797S IC50; other: cell proliferation, 72 h, CellTiter Glo; class symbols; numeric values
- Sequence (P00533 whole entry T790M/C797S/L858R): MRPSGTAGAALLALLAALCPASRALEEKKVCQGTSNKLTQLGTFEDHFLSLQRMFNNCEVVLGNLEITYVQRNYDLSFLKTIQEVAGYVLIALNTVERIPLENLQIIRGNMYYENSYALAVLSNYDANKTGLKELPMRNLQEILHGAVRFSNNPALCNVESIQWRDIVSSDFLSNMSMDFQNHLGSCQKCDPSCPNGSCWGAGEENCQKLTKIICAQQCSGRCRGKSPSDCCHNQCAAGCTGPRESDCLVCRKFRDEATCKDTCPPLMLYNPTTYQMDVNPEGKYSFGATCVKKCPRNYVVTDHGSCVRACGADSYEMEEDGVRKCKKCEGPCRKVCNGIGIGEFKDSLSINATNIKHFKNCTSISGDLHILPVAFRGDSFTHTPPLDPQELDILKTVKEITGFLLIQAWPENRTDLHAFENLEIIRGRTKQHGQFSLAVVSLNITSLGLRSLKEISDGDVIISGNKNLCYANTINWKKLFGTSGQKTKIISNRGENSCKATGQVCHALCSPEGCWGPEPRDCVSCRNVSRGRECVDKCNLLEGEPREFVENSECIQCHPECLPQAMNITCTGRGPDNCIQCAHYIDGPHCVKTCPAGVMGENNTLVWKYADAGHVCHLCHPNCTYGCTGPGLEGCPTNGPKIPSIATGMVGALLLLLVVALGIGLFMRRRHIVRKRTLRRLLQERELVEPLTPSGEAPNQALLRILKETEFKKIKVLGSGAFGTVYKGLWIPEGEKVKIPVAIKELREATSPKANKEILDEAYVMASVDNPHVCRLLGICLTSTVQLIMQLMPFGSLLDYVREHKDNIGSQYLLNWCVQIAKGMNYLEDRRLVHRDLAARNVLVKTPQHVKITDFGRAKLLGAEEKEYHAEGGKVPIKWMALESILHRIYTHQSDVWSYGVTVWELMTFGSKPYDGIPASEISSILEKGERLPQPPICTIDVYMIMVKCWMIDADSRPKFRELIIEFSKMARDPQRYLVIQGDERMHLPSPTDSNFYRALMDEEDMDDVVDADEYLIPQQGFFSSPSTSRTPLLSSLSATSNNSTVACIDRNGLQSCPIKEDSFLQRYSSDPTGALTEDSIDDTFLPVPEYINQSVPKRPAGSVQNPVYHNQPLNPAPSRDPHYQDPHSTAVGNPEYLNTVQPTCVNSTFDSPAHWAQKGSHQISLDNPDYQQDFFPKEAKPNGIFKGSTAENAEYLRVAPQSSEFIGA
- Test details: Ba/F3-L858R/T790M/C797S cells proliferation assay
- Type: cell-based
- Measurement context: cell proliferation, 72 h, CellTiter Glo; class symbols; read-out: BaF3 L858R/T790M/C797S IC50
Reported GI50 by item:

C=CC(=O)Nc1cc(Nc2ncc(Cl)c(Nc3ccccc3P(C)(C)=O)n2)ccc1N(C)CCN1CCCC1 :: 10 to 50 nM

Exercise: Reported GI50, molecule C=CC(=O)Nc1cc(Nc2ncc(Cl)c(Nc3ccc4nccnc4c3P(C)(C)=O)n2)ccc1N1CCC2(CC1)CC(N(C)C)C2 : ____
Key: < 10 nM

Exercise: What do you have for C=C(F)C(=O)Nc1cc(Nc2ncc(Cl)c(Nc3ccccc3P(C)(C)=O)n2)ccc1N1CCC2(CC1)CC(N(C)C)C2 ?
Key: 10 to 50 nM

Exercise: What do you have for C=CC(=O)Nc1cc(Nc2ncc(Cl)c(Nc3ccc4ccccc4c3P(C)(C)=O)n2)ccc1N1CCC2(CC1)CC(N(C)C)C2 ?
Key: < 10 nM

Exercise: What do you have for C=CC(=O)Nc1cc(Nc2ncc(Br)c(Nc3ccc4nccnc4c3P(C)(C)=O)n2)ccc1N1CCC(N2CCN(C)CC2)CC1 ?
Key: 10 to 50 nM

Exercise: What do you have for C=CC(=O)Nc1cc(Nc2ncc(Br)c(Nc3ccc4nccnc4c3P(C)(C)=O)n2)ccc1N(C)CCN(C)C ?
Key: < 10 nM

Exercise: What do you have for CN(C)C/C=C/C(=O)Nc1cc(Nc2ncc(Cl)c(Nc3ccccc3P(C)(C)=O)n2)ccc1N1CCC2(CC1)CC(N(C)C)C2 ?
Key: 10 to 50 nM

====

- Target under test: EGFR Δ19del/T790M/C797S (Homo sapiens, UniProt P00533, T790M/C797S, form not given)
- Sequence (P00533 with tags, fused parts or gaps DEL746-750/T790M/C797S, form open): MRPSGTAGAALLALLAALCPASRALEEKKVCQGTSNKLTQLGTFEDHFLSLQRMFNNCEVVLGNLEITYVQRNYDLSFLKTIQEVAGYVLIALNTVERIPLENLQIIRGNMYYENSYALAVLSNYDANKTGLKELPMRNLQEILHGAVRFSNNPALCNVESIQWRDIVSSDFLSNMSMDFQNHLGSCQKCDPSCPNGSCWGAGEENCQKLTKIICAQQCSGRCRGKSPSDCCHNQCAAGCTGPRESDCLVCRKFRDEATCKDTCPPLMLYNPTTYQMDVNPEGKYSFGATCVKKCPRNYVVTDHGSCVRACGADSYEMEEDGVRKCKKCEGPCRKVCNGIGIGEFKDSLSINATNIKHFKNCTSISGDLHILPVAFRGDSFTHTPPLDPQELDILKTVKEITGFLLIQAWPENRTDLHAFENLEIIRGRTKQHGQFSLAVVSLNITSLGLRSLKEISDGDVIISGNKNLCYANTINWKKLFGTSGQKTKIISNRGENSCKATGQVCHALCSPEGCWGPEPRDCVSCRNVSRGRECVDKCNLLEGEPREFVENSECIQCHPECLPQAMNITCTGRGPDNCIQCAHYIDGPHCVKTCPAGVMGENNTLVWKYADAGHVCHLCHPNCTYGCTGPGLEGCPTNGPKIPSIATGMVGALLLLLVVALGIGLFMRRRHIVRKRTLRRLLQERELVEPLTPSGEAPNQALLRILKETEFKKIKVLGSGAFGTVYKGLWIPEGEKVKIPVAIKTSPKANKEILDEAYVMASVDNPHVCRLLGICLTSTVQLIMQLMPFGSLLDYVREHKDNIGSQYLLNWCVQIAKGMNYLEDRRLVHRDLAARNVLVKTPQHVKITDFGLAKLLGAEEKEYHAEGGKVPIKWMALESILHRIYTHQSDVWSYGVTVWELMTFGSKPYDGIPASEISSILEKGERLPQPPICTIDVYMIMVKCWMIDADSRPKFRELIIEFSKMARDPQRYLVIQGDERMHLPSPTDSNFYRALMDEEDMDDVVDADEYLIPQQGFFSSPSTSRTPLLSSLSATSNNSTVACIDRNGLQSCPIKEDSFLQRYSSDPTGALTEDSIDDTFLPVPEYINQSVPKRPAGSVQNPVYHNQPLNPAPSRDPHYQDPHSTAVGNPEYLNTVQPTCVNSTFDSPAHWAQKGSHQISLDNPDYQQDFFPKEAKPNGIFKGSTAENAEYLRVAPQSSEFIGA
- Test details: Kinase assay (mobility shift) for EGFR Δ19del/T790M/C797S
- Measurement context: read-out: EGFR Δ 19del/T790M/C797S IC50
Observed property: IC50

Some compounds with recorded IC50:
C=CC(=O)Nc1cc(Nc2ncc(Cl)c(Nc3ccccc3P(C)(C)=O)n2)ccc1OC1CCN(C)CC1 [Compound 41] :: < 10 nM
C=CC(=O)Nc1cc(Nc2ncc(F)c(Nc3ccccc3P(C)(C)=O)n2)ccc1N(C)CCN(C)C [Compound 32] :: 10 to 100 nM
C=CC(=O)Nc1cc(Nc2ncc(Br)c(Nc3ccc4nccnc4c3P(C)(C)=O)n2)ccc1N(C)CCN(C)C [Compound 34] :: < 10 nM
C=CC(=O)Nc1cc(Nc2ncc(C)c(Nc3ccccc3P(C)(C)=O)n2)c(OC)cc1N1CCC(N2CCN(C)CC2)CC1 [Compound 22] :: < 10 nM
C=CC(=O)Nc1cc(Nc2nccc(Nc3ccccc3P(C)(C)=O)n2)ccc1N1CCC(N2CCN(C)CC2)CC1 [Compound 38] :: 10 to 100 nM
C=CC(=O)Nc1cc(Nc2ncc(Cl)c(Nc3ccccc3P(C)(C)=O)n2)ccc1N1CCC(N2CCN(C)CC2)CC1 [Compound 16] :: < 10 nM

// below: IC50 requested for another compound
Exercise: # value lookup — system EGFR Δ19del/T790M/C797S (Homo sapiens, UniProt P00533, T790M/C797S, form not given), readout IC50, item C=CC(=O)Nc1cc(Nc2ncc(Cl)c(Nc3ccc4nccnc4c3P(C)(C)=O)n2)c(OC)cc1N1CCC2(CC1)CC(N(C)C)C2 [Compound 11]
Key: < 10 nM

====

Reported GI50 by item:
- Target under test: Ba/F3-Δ19del/T790M/C797S (Homo sapiens, UniProt P00533, T790M/C797S, cells depend on it, form not given)
- Test details: Ba/F3-Δ19del/T790M/C797S cells proliferation assay
- Type: cell-based
- Measurement context: cell proliferation, 72 h, CellTiter Glo; class symbols; read-out: BaF3 Δ 19del/T790M/C797S IC50

Exercise: Reported GI50, compound CCN1CC2(C1)CN(c1ccc(Nc3ncc(Cl)c(Nc4ccccc4P(C)(C)=O)n3)cc1C)C2 [Comparative compound A, reference compound] : ____
Key: < 10 nM

Exercise: What do you have for C=CC(=O)Nc1cc(Nc2ncc(Cl)c(Nc3ccccc3P(C)(C)=O)n2)ccc1N(C)CCN1CCCC1 ?
Key: 10 to 50 nM

====

- Target under test: Ba/F3-L858R/T790M/C797S (Homo sapiens, UniProt P00533, T790M/C797S/L858R, cells depend on it)
- Construct: BaF3 L858R/T790M/C797S IC50; other: cell proliferation, 72 h, CellTiter Glo; class symbols; numeric values
- Test details: Ba/F3-L858R/T790M/C797S cells proliferation assay
- Assay type: cell-based
- Measurement context: cell proliferation, 72 h, CellTiter Glo; class symbols; read-out: BaF3 L858R/T790M/C797S IC50
Observed property: GI50

Some molecules with recorded GI50:
C=CC(=O)Nc1cc(Nc2ncc(Cl)c(Nc3ccccc3P(C)(C)=O)n2)ccc1N1CCC2(CC1)CC(N(C)C)C2 [Compound 36] :: < 10 nM
C=CC(=O)Nc1cc(Nc2ncc(Cl)c(Nc3ccccc3P(C)(C)=O)n2)ccc1N(C)CCN(C)C [Compound 15] :: 10 to 50 nM

Exercise: Reported GI50, molecule C=C(C)C(=O)Nc1cc(Nc2ncc(Cl)c(Nc3ccccc3P(C)(C)=O)n2)ccc1N1CCC2(CC1)CC(N(C)C)C2 [Compound 7] : ____
Key: 10 to 50 nM

====

- Target under test: EGFR Δ19del/T790M/C797S (Homo sapiens, UniProt P00533, T790M/C797S, form not given)
- Test details: Kinase assay (mobility shift) for EGFR Δ19del/T790M/C797S
- Measurement context: read-out: EGFR Δ 19del/T790M/C797S IC50
Observed property: IC50

Some molecules with recorded IC50:
C=CC(=O)Nc1cc(Nc2ncc(C)c(Nc3ccccc3P(C)(C)=O)n2)ccc1N(C)CCN(C)C :: < 10 nM
C=CC(=O)Nc1cc(Nc2ncc(Cl)c(Nc3ccc4nccnc4c3P(C)(C)=O)n2)ccc1N1CCC2(CC1)CC(N(C)C)C2 :: < 10 nM
C=CC(=O)Nc1cc(Nc2ncc(Br)c(Nc3ccc4nccnc4c3P(C)(C)=O)n2)ccc1N1CCC2(CC1)CC(N(C)C)C2 :: < 10 nM
C=CC(=O)Nc1cc(Nc2ncc(Cl)c(Nc3ccccc3P(C)(C)=O)n2)c(OC)cc1N1CCC2(CC1)CC(N(C)C)C2 :: < 10 nM
C=CC(=O)Nc1cc(Nc2ncc(Cl)c(Nc3ccccc3P(C)(C)=O)n2)ccc1N1CCC2(CC1)CC(N(C)C)C2 :: < 10 nM

Exercise: Reported IC50, molecule C=CC(=O)Nc1cc(Nc2nccc(Nc3ccccc3P(C)(C)=O)n2)ccc1N1CCC2(CC1)CC(N(C)C)C2 : ____
Key: < 10 nM

Exercise: What do you have for C=CC(=O)Nc1cc(Nc2ncc(Cl)c(Nc3ccccc3P(C)(C)=O)n2)ccc1N1CCC2(CCC(N(C)C)CC2)CC1 ?
Key: < 10 nM

Exercise: What do you have for C=CC(=O)Nc1cc(Nc2ncc(F)c(Nc3ccccc3P(C)(C)=O)n2)ccc1N1CCC(N2CCN(C)CC2)CC1 ?
Key: < 10 nM

Exercise: What do you have for C=CC(=O)Nc1cc(Nc2ncc(Cl)c(Nc3ccccc3P(C)(C)=O)n2)ccc1N1CCC2(CC1)CN(C)C2 ?
Key: < 10 nM

Exercise: What do you have for C=CC(=O)N(C)c1cc(Nc2ncc(Cl)c(Nc3ccccc3P(C)(C)=O)n2)ccc1N1CCC2(CC1)CC(N(C)C)C2 ?
Key: < 10 nM

Exercise: What do you have for C=CC(=O)Nc1cc(Nc2ncc(Cl)c(Nc3ccc4ncccc4c3P(C)(C)=O)n2)ccc1N1CCC2(CC1)CC(N(C)C)C2 ?
Key: < 10 nM
